biological target: CpsR (Streptococcus pneumoniae D39, UniProt A0A0H2ZMA3 1-247); test: EMSA; EMSA: 20 mM HEPES pH 7.2, 50 mM NaCl, 5 mM MgCl2, 1 mM CaCl2, 0.1 mM EDTA, 12% glycerol, 10 mM DTT, 0.5 uM DNA, 400 ng poly(dI-dC); FP: same salts, 2% glycerol, 10 nM DNA (high salt 500 mM NaCl; Fig 5 legend says Tris pH 7.0); temperature not stated; details: protein: recombinant; tags: His6-SUMO removed by Ulp1; chain copies: 2; label: 6-FAM forward; blunt
endpoint name: binding result

37-CE 5'+10 (dsDNA) DNA 1: TGTGTACTATATTATATTGA DNA 2: TCAATATAATATAGTACACA = binds
21-CE Neither (dsDNA) DNA 1: GTGTGAGAGAGTAGTTTGAAA DNA 2: TTTCAAACTACTCTCTCACAC = no binding
37-CE 3'+10 (dsDNA) DNA 1: TGAAACTAGAATAGTACACA DNA 2: TGTGTACTATTCTAGTTTCA = no binding
21-CE SpxR-only (dsDNA) DNA 1: GTGTACTAGAGTAGTTTGAAA DNA 2: TTTCAAACTACTCTAGTACAC = no binding
37-CE spacer (17 bp) (dsDNA) DNA 1: ATTATATTGAAACTAGA DNA 2: TCTAGTTTCAATATAAT = no binding

Could you now consider this next binder?
# binder 37-CE 5' (10 bp) (dsDNA) DNA 1: TGTGTACTAT DNA 2: ATAGTACACA ; its binding result = no binding
